The measured values listed here are drawn from patent US20230301981A1.

Molecular target: UniProt Q9NYK1
Sequence (Q9NYK1 27-1049, species assumed): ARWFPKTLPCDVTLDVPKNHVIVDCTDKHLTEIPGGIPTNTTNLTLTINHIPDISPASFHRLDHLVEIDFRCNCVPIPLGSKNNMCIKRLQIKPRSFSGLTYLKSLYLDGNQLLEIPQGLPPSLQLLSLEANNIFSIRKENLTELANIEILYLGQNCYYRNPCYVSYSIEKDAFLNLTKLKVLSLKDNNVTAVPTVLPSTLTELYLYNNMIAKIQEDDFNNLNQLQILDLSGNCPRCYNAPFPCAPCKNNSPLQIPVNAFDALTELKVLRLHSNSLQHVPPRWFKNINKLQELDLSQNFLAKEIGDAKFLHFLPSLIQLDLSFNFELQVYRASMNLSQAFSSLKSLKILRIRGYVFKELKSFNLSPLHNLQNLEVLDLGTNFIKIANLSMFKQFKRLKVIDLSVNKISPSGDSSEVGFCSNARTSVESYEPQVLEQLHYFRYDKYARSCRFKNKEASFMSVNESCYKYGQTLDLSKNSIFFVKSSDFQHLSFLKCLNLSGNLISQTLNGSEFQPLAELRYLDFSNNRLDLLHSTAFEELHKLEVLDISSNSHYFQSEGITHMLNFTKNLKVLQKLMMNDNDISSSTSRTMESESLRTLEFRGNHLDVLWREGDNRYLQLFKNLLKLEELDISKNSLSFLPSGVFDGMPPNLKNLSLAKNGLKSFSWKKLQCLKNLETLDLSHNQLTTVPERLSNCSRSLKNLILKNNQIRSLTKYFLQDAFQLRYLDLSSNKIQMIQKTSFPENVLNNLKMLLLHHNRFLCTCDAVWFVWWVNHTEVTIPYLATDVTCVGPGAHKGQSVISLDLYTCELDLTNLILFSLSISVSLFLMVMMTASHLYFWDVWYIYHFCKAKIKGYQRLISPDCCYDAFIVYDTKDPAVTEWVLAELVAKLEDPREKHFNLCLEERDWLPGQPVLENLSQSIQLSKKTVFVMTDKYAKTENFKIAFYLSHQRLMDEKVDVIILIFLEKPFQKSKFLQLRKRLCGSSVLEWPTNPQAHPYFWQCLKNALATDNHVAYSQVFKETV
Assay: HEK293 TLR7/NFKb reporter cell assay with R848 agonist
Assay type: cell-based
Parameters: expressed in transfected cells; host or cells: HEK293
Details: HEK293 TLR7/NFKb reporter cells, R848 agonist; read-out: IC50 TLR7 (IL6 READOUT) HEK TRANSFECTED
observedProperty: IC50 (µM)
Answers are plain numbers, in µM.

Q) Please state recorded IC50 (tested on UniProt Q9NYK1) of CCN(CC)Cc1cc(Nc2ccnc3cc(Cl)ccc23)cc(CN(CC)CC)c1O
A) 1.39

Q) Value wanted: IC50 (UniProt Q9NYK1) of entry COc1ccc2nc3cc(Cl)ccc3c(Nc3cc(CN4CCCC4)c(O)c(CN4CCCC4)c3)c2n1
A) 5

Here is the next item to consider.
Q) Lookup: IC50 / UniProt Q9NYK1 / Oc1c(CN2CCCC2)cc(Nc2ccnc3cc(Cl)ccc23)cc1CN1CCCC1
A) 4.59
